- MEASURED_ON: T1, histidine-labeled cynomolgus monkey 4-1BB protein (cynomolgus monkey)
- T1 construct: also called Monkey 4-1BB protein antigen (histidine-labeled); cynomolgus monkey 4-1BB protein and his tag (Acrobiosystem, #41B-052H4)
- MEASUREMENT_NOTES: BLI Octet RED96, AHC sensor, his-tagged antigen
Simple rule here: kon less than 200000 M⁻¹ s⁻¹ is Satisfied, otherwise Not satisfied.

Ask: I wonder whether PR001758 (antibody, human IgG1, V domains shown, HCAb, heavy chain only, human IgG1 Fc; also called 1016P0010B11) VH: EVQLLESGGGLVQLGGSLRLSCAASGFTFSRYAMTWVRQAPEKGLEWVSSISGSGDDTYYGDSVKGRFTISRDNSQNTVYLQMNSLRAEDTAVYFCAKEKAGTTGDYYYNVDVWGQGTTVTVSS has kon below 200000 M⁻¹ s⁻¹. Can you tell?
Result: Satisfied

More entries:
Ask: I wonder whether PR001833 (antibody, human IgG1, V domains shown, HCAb, heavy chain only, human IgG1 Fc; also called 1016P0016F8) VH: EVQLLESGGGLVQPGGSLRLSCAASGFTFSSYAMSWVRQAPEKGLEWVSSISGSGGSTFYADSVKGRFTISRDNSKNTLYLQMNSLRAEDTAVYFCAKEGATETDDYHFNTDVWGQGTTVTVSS has kon below 200000 M⁻¹ s⁻¹. Can you tell?
Result: Satisfied

Ask: I wonder whether PR001760 (antibody, human IgG1, V domains shown, HCAb, heavy chain only, human IgG1 Fc; also called 1016P0011G10) VH: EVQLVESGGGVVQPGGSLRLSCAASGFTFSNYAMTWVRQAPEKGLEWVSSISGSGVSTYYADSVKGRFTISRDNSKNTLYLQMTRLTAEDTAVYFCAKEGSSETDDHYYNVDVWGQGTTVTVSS has kon below 200000 M⁻¹ s⁻¹. Can you tell?
Result: Satisfied

Ask: I wonder whether PR001759 (antibody, human IgG1, V domains shown, HCAb, heavy chain only, human IgG1 Fc; also called 1016P0010D7) VH: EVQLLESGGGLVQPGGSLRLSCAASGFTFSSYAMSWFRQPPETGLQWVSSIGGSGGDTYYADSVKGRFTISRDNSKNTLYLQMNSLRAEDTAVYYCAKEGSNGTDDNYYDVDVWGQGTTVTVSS has kon below 200000 M⁻¹ s⁻¹. Can you tell?
Result: Not satisfied

Ask: I wonder whether PR001830 (antibody, human IgG1, V domains shown, HCAb, heavy chain only, human IgG1 Fc; also called 1016P0014G8) VH: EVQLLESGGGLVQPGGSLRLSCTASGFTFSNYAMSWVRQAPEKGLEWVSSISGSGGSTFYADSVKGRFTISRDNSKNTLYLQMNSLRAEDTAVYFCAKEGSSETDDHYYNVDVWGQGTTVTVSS has kon below 200000 M⁻¹ s⁻¹. Can you tell?
Result: Satisfied

Ask: I wonder whether PR001836 (antibody, human IgG1, V domains shown, HCAb, heavy chain only, human IgG1 Fc; also called 1016P0020G4) VH: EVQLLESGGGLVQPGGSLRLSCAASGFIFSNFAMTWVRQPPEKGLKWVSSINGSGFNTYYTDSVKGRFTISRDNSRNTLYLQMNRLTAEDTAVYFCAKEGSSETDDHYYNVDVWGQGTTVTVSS has kon below 200000 M⁻¹ s⁻¹. Can you tell?
Result: Satisfied
